Measured ε (molar absorptivity) values are reported for all entries that follow.
# test: Determination of photochemical properties of saponified dyes
# Type: physicochemical
# settings: at λmax; after saponification; 150 mM KCl, 10 mM HEPES, 50 μM EDTA, pH = 7.22

{"columns": ["compound", "ε (molar absorptivity)"],
 "data": [
  ["COc1cc(NC(=O)c2ccc3c(c2)C(=O)OC32c3ccc(OC(C)=O)cc3Oc3cc(N4CCCC4)ccc32)ccc1N(CC(=O)OCOC(C)=O)CC(=O)OCOC(C)=O (centres unmarked) [Compound 8l]", "39000 M⁻¹ cm⁻¹"],
  ["COc1cc(NC(=O)c2ccc3c(c2)C(=O)OC32c3ccc(NC4CCCCC4)cc3Oc3cc(OC(C)=O)ccc32)ccc1N(CC(=O)OCOC(C)=O)CC(=O)OCOC(C)=O (centres unmarked) [Compound 8g]", "57000 M⁻¹ cm⁻¹"],
  ["COc1cc(NC(=O)c2ccc3c(c2)C(=O)OC32c3ccc(NC(C)=O)cc3Oc3cc(OC(C)=O)ccc32)ccc1N(CC(=O)OCOC(C)=O)CC(=O)OCOC(C)=O (centres unmarked) [Compound 8b]", "24000 M⁻¹ cm⁻¹"],
  ["CCCCNc1ccc2c(c1)Oc1cc(OC(C)=O)ccc1C21OC(=O)c2cc(C(=O)Nc3ccc(N(CC(=O)OCOC(C)=O)CC(=O)OCOC(C)=O)c(OC)c3)ccc21 (centres unmarked) [Compound 8h]", "48000 M⁻¹ cm⁻¹"],
  ["CCCCN(CCCC)c1ccc2c(c1)Oc1cc(OC(C)=O)ccc1C21OC(=O)c2cc(C(=O)Nc3ccc(N(CC(=O)OCOC(C)=O)CC(=O)OCOC(C)=O)c(OC)c3)ccc21 (centres unmarked) [Compound 8f]", "58000 M⁻¹ cm⁻¹"]
]}

====

As shown below, each of these compounds has a reported ε (molar absorptivity) value.
# test: Determination of photochemical properties of saponified dyes
# Format: physicochemical
# settings: at λmax; after saponification; 150 mM KCl, 10 mM HEPES, 50 μM EDTA, pH = 7.22
metric: ε (molar absorptivity)

{"columns": ["compound", "result"],
 "data": [
  ["COc1cc(NC(=O)c2ccc3c(c2)C(=O)OC32c3ccc(Nc4ccccc4)cc3Oc3cc(OC(C)=O)ccc32)ccc1N(CC(=O)OCOC(C)=O)CC(=O)OCOC(C)=O (stereo not drawn)", "52000 M⁻¹ cm⁻¹"],
  ["CCCN(CCC)c1ccc2c(c1)Oc1cc(OC(C)=O)ccc1C21OC(=O)c2cc(C(=O)Nc3ccc(N(CC(=O)OCOC(C)=O)CC(=O)OCOC(C)=O)c(OC)c3)ccc21 (stereo not drawn)", "66000 M⁻¹ cm⁻¹"],
  ["COc1cc(NC(=O)c2ccc3c(c2)C(=O)OC32c3ccc(OC(C)=O)cc3Oc3cc(N(C)C)ccc32)ccc1N(CC(=O)OCOC(C)=O)CC(=O)OCOC(C)=O (stereo not drawn)", "56000 M⁻¹ cm⁻¹"]
]}

====

# tested-target: GIRK1 and GIRK2 (Homo sapiens, UniProt P48051+P48549)
# Construct: expressed in transfected cells; host or cells: HEK-293
# Sequence (P48549 whole entry, species assumed): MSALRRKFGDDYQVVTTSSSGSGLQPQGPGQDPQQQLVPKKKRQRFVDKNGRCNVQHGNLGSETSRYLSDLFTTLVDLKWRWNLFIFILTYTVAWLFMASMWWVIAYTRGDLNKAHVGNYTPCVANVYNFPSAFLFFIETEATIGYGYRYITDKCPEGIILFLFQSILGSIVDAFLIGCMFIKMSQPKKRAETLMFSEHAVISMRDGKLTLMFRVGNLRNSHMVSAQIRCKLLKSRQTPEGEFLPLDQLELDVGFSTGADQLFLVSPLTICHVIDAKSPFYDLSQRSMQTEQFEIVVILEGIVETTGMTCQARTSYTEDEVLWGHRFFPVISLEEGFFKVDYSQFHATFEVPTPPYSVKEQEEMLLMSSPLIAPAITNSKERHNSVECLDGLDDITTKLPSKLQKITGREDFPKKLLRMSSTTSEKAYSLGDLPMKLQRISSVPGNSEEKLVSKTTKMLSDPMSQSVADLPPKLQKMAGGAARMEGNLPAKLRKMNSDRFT
# Sequence (P48051 whole entry, species assumed): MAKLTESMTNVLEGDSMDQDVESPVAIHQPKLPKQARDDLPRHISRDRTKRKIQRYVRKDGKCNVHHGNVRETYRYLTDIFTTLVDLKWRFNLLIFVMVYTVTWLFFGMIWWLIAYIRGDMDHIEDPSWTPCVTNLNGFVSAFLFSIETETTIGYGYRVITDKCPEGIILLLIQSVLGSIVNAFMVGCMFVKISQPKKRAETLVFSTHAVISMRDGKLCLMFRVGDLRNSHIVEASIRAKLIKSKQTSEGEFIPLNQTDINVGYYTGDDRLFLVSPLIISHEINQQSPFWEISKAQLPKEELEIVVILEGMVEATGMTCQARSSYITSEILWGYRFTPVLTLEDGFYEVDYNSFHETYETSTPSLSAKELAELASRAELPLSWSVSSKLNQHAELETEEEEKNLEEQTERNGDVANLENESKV
# test: ML297 concentration response curves by Tl+ flux assay
# Assay type: cell-based
# settings: dye 8c; bicarbonate stimulus buffer, 500 μM Tl^+, no-wash, 1 mM Allura Red AC
# From the text: ML297 concentration response curves—In general, all concentration-response data were collected on a WaveFront Biosciences Panoptic 2. Thallos treated cells were imaged using 482/35 nm excitation and 536/40 nm emission filters. […] The fluorescence intensity values of the first 6 time points for each well were averaged and the fluorescence intensity for all time points in the well was divided by this value to provide F/Fo for each time point. […]
metric: EC50 (µM)

{"columns": ["smiles-string", "unit-abbrev", "quantitative-readout"],
 "data": [
  ["Cc1cc(NC(=O)Nc2ccc(F)c(F)c2)n(-c2ccccc2)n1", "µM", 0.204]
]}
